Sourced from paper PMC9370021

readoutLabel: melting point

# example entries with known answers
In [3]: df
Out[3]:
                                   compound   readoutlabel  valuemeasured
0  CC(=O)Oc1ccc(C(OC(C)=O)N(/N=C(\C)c2ccc(Br)cc2)c2nc(-c3ccc(Cl)cc3)cs2)cc1 (centres unmarked)  melting point  126 to 128 °C
1  COc1cc(C(OC(C)=O)N(/N=C(\C)c2ccc(Br)cc2)c2nc(-c3ccc(Cl)cc3)cs2)ccc1OC(C)=O (centres unmarked)  melting point  126 to 128 °C
2  COc1cc(C(O)N(/N=C(\C)c2ccc(Br)cc2)c2nc(-c3ccc(Cl)cc3)cs2)ccc1O (centres unmarked)  melting point  158 to 160 °C
3  C/C(=N\Nc1nc(-c2ccc(Cl)cc2)cs1)c1ccc(Br)cc1  melting point         185 °C

Req: Give the measured melting point of C/C(=N\N(c1nc(-c2ccc(Cl)cc2)cs1)C(O)c1ccc(O)cc1)c1ccc(Br)cc1 (centres unmarked) .
Resp: 155 to 157 °C
